Source listed as ChEMBL document CHEMBL1955742.

test system: A549; test: Antiproliferative activity against human A549 cells at 10^-6 mol/L after 72 hrs by MTT assay; format: functional; details: A549, 72 h
MEASURE NAME: inhibition at 1 µM (%)
Numbers only, in %.

Example cases with answers are listed next.
COc1cc2c3c(c4cc5c(cc4c2cc1OC)OCCO5)CC1CCCN1C3 (racemic) : 87.4
COc1cc2c3c(c4cc5c(cc4c2cc1OC)OCO5)CC1CCCN1C3 (racemic) : 70.3
COc1cc2c3c(c4ccc(O)cc4c2cc1OC)CN1CCC[C@H]1C3 : 85.9
COc1cc2c3c(c4cc(OC)c(OC)cc4c2cc1OC)[C@H](O)[C@@H]1CCCN1C3 : 80.9
COc1cc2c3c(c4cc(OC)c(OC)cc4c2cc1OC)CN1CCCC1C3 (racemic) [(+/-)-TYLOPHORINE] : 72.3

Give inhibition at 1 µM for each of the items listed below.
1. COc1cc2c3c(c4cc5c(cc4c2cc1OC)OCCO5)CN1CCCC1C3 (racemic)
2. c1c2c(cc3c1c1c(c4cc5c(cc43)OCCO5)CN3CCCC3C1)OCCO2 (racemic)

1: 85.6; 2: 38.6

Could I get inhibition at 1 µM for every one of these entries?
1. COc1cc2c3c(c4cc5c(cc4c2cc1OC)OCO5)CN1CCCC1C3 (racemic)
2. COc1cc2c3c(c4cc(OC)c(OC)cc4c2cc1OC)[C@H](O)[C@H]1CCCN1C3

80.9
17.9

---

system: A549; assay: Antiproliferative activity against human A549 cells at 10^-6 mol/L after 72 hrs by MTT assay; assay type: functional; conditions: A549, 72 h
Could you please report measured inhibition at 1 µM for the items listed next?
Answers are plain numbers, in %.

COc1cc2c3c(c4cc(OC)c(OC)cc4c2cc1OC)[C@@H](O)[C@H]1CCCN1C3 : 68.9

Items follow; give inhibition at 1 µM for each.
1. COc1cc2c3c(c4ccc(O)cc4c2cc1OC)CN1CCC[C@@H]1C3
2. COc1cc2c3c(c4cc(OC)c(OC)cc4c2cc1OC)[C@@H](O)[C@@H]1CCCN1C3
3. c1c2c(cc3c1c1c(c4cc5c(cc43)OCO5)CN3CCCC3C1)OCO2 (racemic)

1: 94.8; 2: 50; 3: 40.8

---

tested on: A549; test: Antiproliferative activity against human A549 cells at 10^-7 mol/L after 72 hrs by MTT assay; format: functional; conditions: A549, 72 h
For each entry below, report its inhibition at 0.1 µM value.
Give bare numbers, in %.

For the 3 compounds below, give their inhibition at 0.1 µM values.
1. c1c2c(cc3c1c1c(c4cc5c(cc43)OCCO5)CN3CCCC3C1)OCCO2 (racemic)
2. COc1cc2c3c(c4cc(OC)c(OC)cc4c2cc1OC)[C@H](O)[C@H]1CCCN1C3
3. COc1cc2c3c(c4ccc(O)cc4c2cc1OC)CN1CCC[C@@H]1C3

1. 6.3
2. 5.6
3. 92.3

Report inhibition at 0.1 µM for every entry below.
1. COc1cc2c3c(c4cc(OC)c(OC)cc4c2cc1OC)[C@H](O)[C@@H]1CCCN1C3
2. c1c2c(cc3c1c1c(c4cc5c(cc43)OCO5)CN3CCCC3C1)OCO2 (racemic)
3. COc1cc2c3c(c4cc(OC)c(OC)cc4c2cc1OC)[C@@H](O)[C@@H]1CCCN1C3
4. COc1cc2c3c(c4cc5c(cc4c2cc1OC)OCCO5)CC1CCCN1C3 (racemic)
5. COc1cc2c3c(c4cc5c(cc4c2cc1OC)OCO5)CN1CCCC1C3 (racemic)
6. COc1cc2c3c(c4cc(OC)c(OC)cc4c2cc1OC)CN1CCCC1C3 (racemic) [(+/-)-TYLOPHORINE]

55
5.2
8.2
58.2
51.6
61.4

---

tested on: HL-60; test: Antiproliferative activity against human HL60 cells at 10^-7 mol/L after 72 hrs by SRB assay; format: functional; conditions: HL-60, 72 h
Hi there, I'd appreciate the recorded inhibition at 0.1 µM for every entry that follows.
Numbers only, in %.

Known inhibition at 0.1 µM results, listed for orientation:
COc1cc2c3c(c4cc(OC)c(OC)cc4c2cc1OC)CN1CCCC1C3 (racemic) [(+/-)-TYLOPHORINE] : 40.5
COc1cc2c3c(c4cc5c(cc4c2cc1OC)OCO5)CC1CCCN1C3 (racemic) : 9.4
COc1cc2c3c(c4cc5c(cc4c2cc1OC)OCCO5)CN1CCCC1C3 (racemic) : 52.2

From here, focus on the item given below.
Measured inhibition at 0.1 µM, COc1cc2c3c(c4cc5c(cc4c2cc1OC)OCO5)CN1CCCC1C3 (racemic) : 56.4

---

system: A549; test: Antiproliferative activity against human A549 cells at 10^-8 mol/L after 72 hrs by MTT assay; assay type: functional; settings: A549, 72 h
Would you kindly list inhibition at 0.01 µM for each of these compounds?
Numbers only, in %.

Observe how each entry below is paired with its result.
COc1cc2c3c(c4cc(OC)c(OC)cc4c2cc1OC)[C@H](O)[C@@H]1CCCN1C3 : 17.1
COc1cc2c3c(c4cc5c(cc4c2cc1OC)OCCO5)CN1CCCC1C3 (racemic) : 2.1
COc1cc2c3c(c4cc(OC)c(OC)cc4c2cc1OC)[C@@H](O)[C@H]1CCCN1C3 : 12.3

Entry c1c2c(cc3c1c1c(c4cc5c(cc43)OCCO5)CN3CCCC3C1)OCCO2 (racemic) — recorded inhibition at 0.01 µM = 8.7

---

tested on: A549; test: Antiproliferative activity against human A549 cells at 10^-7 mol/L after 72 hrs by MTT assay; format: functional; details: A549, 72 h
MEASURE NAME: inhibition at 0.1 µM (%)
Numbers only, in %.

COc1cc2c3c(c4cc5c(cc4c2cc1OC)OCCO5)CN1CCCC1C3 (racemic) : 78.9
COc1cc2c3c(c4cc(OC)c(OC)cc4c2cc1OC)[C@@H](O)[C@H]1CCCN1C3 : 31.3
COc1cc2c3c(c4cc5c(cc4c2cc1OC)OCO5)CC1CCCN1C3 (racemic) : 22.4

# ---- query molecule ----
Kindly note the recorded inhibition at 0.1 µM for `COc1cc2c3c(c4ccc(O)cc4c2cc1OC)CN1CCC[C@H]1C3` , which is 71.3

---

system: HL-60; assay: Antiproliferative activity against human HL60 cells at 10^-7 mol/L after 72 hrs by SRB assay; format: functional; details: HL-60, 72 h
Given measured inhibition at 0.1 µM, output condition met if it is greater than or equal to 20% and condition not met if not.

COc1cc2c3c(c4cc(OC)c(OC)cc4c2cc1OC)[C@H](O)[C@@H]1CCCN1C3 : condition met
COc1cc2c3c(c4ccc(O)cc4c2cc1OC)CN1CCC[C@H]1C3 : condition met
COc1cc2c3c(c4cc(OC)c(OC)cc4c2cc1OC)[C@@H](O)[C@@H]1CCCN1C3 : condition not met
COc1cc2c3c(c4ccc(O)cc4c2cc1OC)CN1CCC[C@@H]1C3 : condition met
COc1cc2c3c(c4cc(OC)c(OC)cc4c2cc1OC)[C@H](O)[C@H]1CCCN1C3 : condition not met
c1c2c(cc3c1c1c(c4cc5c(cc43)OCO5)CN3CCCC3C1)OCO2 (racemic) : condition not met

Reported inhibition at 0.1 µM reaches at least 20% for COc1cc2c3c(c4cc5c(cc4c2cc1OC)OCCO5)CC1CCCN1C3 (racemic) ?
condition met

Does the compound `COc1cc2c3c(c4cc(OC)c(OC)cc4c2cc1OC)[C@@H](O)[C@H]1CCCN1C3` have recorded inhibition at 0.1 µM that is 20% or more?
condition met

hey, is inhibition at 0.1 µM for this one >= 20%? c1c2c(cc3c1c1c(c4cc5c(cc43)OCCO5)CN3CCCC3C1)OCCO2 (racemic)
condition not met

---

system: A549; assay: Antiproliferative activity against human A549 cells at 10^-8 mol/L after 72 hrs by MTT assay; format: functional; conditions: A549, 72 h
MEASURE NAME: inhibition at 0.01 µM (%)
One number for each entry, in %.

COc1cc2c3c(c4cc(OC)c(OC)cc4c2cc1OC)[C@@H](O)[C@@H]1CCCN1C3 : 5.2
COc1cc2c3c(c4cc(OC)c(OC)cc4c2cc1OC)CN1CCCC1C3 (racemic) [(+/-)-TYLOPHORINE] : 6
COc1cc2c3c(c4cc(OC)c(OC)cc4c2cc1OC)[C@H](O)[C@H]1CCCN1C3 : 5

Please state inhibition at 0.01 µM for every compound in the list that follows.
1. COc1cc2c3c(c4ccc(O)cc4c2cc1OC)CN1CCC[C@@H]1C3
2. c1c2c(cc3c1c1c(c4cc5c(cc43)OCO5)CN3CCCC3C1)OCO2 (racemic)
3. COc1cc2c3c(c4ccc(O)cc4c2cc1OC)CN1CCC[C@H]1C3
4. COc1cc2c3c(c4cc5c(cc4c2cc1OC)OCO5)CN1CCCC1C3 (racemic)

1. 86
2. 5.7
3. 21.9
4. 16.9

Could you report inhibition at 0.01 µM for every entry in the following list?
1. COc1cc2c3c(c4cc5c(cc4c2cc1OC)OCO5)CC1CCCN1C3 (racemic)
2. COc1cc2c3c(c4cc5c(cc4c2cc1OC)OCCO5)CC1CCCN1C3 (racemic)

1: 15.9; 2: 14
